Data provenance is ChEMBL document CHEMBL4513216.

# Test Summary: Toxicity liver stage against HepG2, at 10uM
# Format: cell-based
# Set-up: test concentration 10 uM, cell line HepG2-A16-CD81EGFP
# Condition Parameters: human, HepG2-A16-CD81EGFP cells; read-out: INHIBITION
Exercise: for every item that follows, state its recorded cytotoxicity at 10 µM.
Kindly answer with a numeric value in %, unit omitted.

In: Data request, read-out cytotoxicity at 10 µM, for COCc1nc(C(=O)N2CCCC2c2cccc(C)c2)cs1 (configuration not stated)
Out: -8.93

In: What do we get for O=C(COC[C@@]12CCC[C@@H]1CN(C1CCCC1)C2)N1CCCC1 ?
Out: -112

In: One more molecule: CC(=O)Nc1ccc2c(c1)CN(C(=O)c1ccco1)CC2
Out: 6.17

In: Quick one: O=C1CC(c2ccncc2)C2(CCN(Cc3nccs3)CC2)N1 (configuration not stated)
Out: 4.8

In: Can you handle CN1CCCC(CCC(=O)N2CCc3[nH]c(-c4ccccc4)nc3C2)C1 (configuration not stated) next?
Out: -4.13

In: Let us now turn to Cc1cc(CN2CCN(CC(O)c3ccc(C)c(C)c3)CC2)no1 (configuration not stated)
Out: -2.96

In: Again, but for COc1cccc(C2CCCN2CCCNS(C)(=O)=O)c1 (configuration not stated)
Out: -2

In: Cool, now CN1CCCC(CNC(=O)N(C)Cc2ccc(Cl)c(F)c2)C1 (configuration not stated)
Out: 1.36

In: And O=C(c1ccoc1)N1CCN(Cc2ccccc2F)CC1 ?
Out: -13.2

In: Similarly, COc1cccc(CNCc2cccnc2-n2cccn2)c1OC ?
Out: 2.86

In: Param item: O=C(Cn1cccc1)NCC1CCN(Cc2cc3ccccc3[nH]2)C1 (configuration not stated)
Out: 12.6

In: Moving on to the next molecule: COc1ccc(C(C)NC(=O)NCCc2ccc(C)nc2)c(OC)c1 (configuration not stated)
Out: -1.74

----------
# Test Summary: Toxicity liver stage against HepG2, at 10uM
# Type: cell-based
# Design: test concentration 10 uM, cell line HepG2-A16-CD81EGFP
# Condition Parameters: human, HepG2-A16-CD81EGFP cells; read-out: INHIBITION
What cytotoxicity at 10 µM was measured for each of the following?
The reply must contain the numeric value and, after it, the unit.

In: Find the recorded cytotoxicity at 10 µM belonging to CC(=O)N1CCC2(CC1)C(=O)N(c1ccc(C)nc1)CCN2CC(C)C and report it.
Out: 22.2%

In: How about CC(NC(=O)CN1C=Nc2ccccc2S1(=O)=O)C1CC1 (centres undefined) ?
Out: 4.53%

In: Next compound: COc1ccccc1N1CCN(CC(=O)NC(C)c2ccco2)CC1 (centres undefined)
Out: -2.58%

In: And then Cc1csc(N(C)C(=O)C(c2c(F)cccc2Cl)N(C)C)n1 (centres undefined) , what is it?
Out: -44.3%

In: Same question for CCc1ccc(C2CCCN2C(=O)Cc2ccc(NC(C)=O)cc2)o1 (centres undefined) please.
Out: -0.557%

In: Input O=C(NCc1ccccn1)[C@H]1COC[C@H]2CN(Cc3ccoc3)C[C@H]21
Out: 1.54%

In: Now the compound CC1CCN(CCCNS(=O)(=O)c2cc(F)cc(F)c2)CC1
Out: 11.3%

In: Please answer likewise for COc1ccccc1C1(O)CCCN(C(=O)c2cnc(SC)nc2)C1 (centres undefined)
Out: 7.27%

In: Note, next up: COc1ccccc1CC(=O)NCCCN1CCCC1C(=O)N(C)C (centres undefined)
Out: -13%

In: Next compound up: COc1ccc(N(C(=O)c2ccccn2)C(C)C)cc1F
Out: -1.26%

In: Please give the result for CC(C(=O)N1CCCCC1)N1CCN(c2nccs2)CC1 (centres undefined) too.
Out: 22.1%

In: # iterate: CC(C)=CCC1(C(=O)O)CCCN(c2cc(N)ncn2)C1 (centres undefined)
Out: 10.1%

In: Please answer likewise for Nc1nccc(N2CCC(Cc3ccccc3Cl)(C(=O)O)CC2)n1
Out: -21.8%

In: Thanks! And COc1ccccc1C(=O)N(C)Cc1nnc2ccccn12 ?
Out: -2.45%

In: # repeat for CC(C)N1CCCC2(CCN(C(=O)CCCn3ccnc3)C2)C1=O (centres undefined)
Out: -6.43%

In: Here is the next compound: Cc1nn(C)c(Cl)c1C1CCCN1C(=O)c1ccc(O)nc1 (centres undefined)
Out: -11.2%

In: Do the same for CC(=O)N1CCCC2(CCN(C(=O)c3nccnc3N)CC2)C1 please
Out: 3.47%

In: Another compound to look at: O=C(CN1CCCC1Cn1cccn1)NC1CCN(C2CC2)CC1 (centres undefined)
Out: 5.77%

In: Same question for CC1N(CC2CC2)C(=O)COC12CCN(C(=O)c1ccncc1)CC2 (centres undefined) please.
Out: -13.7%

In: Can you check CCc1ccc(C(=O)NCCCC2(C3OCCO3)CCOCC2)cc1 next?
Out: 15.6%

In: Could you do the same for Cc1nn(C)c(C)c1C(=O)NN1CCOCC1 , please?
Out: 7.83%

In: Same question for CC(C)N(Cc1ccccc1)Cc1csc(-c2ncccn2)n1 please.
Out: 7.76%

In: Please answer likewise for CCc1cn[nH]c1C1CCCN(C(=O)c2cnc(NC(C)C)nc2)C1 (centres undefined)
Out: -13.2%

In: Ok, now Cc1nc(CCN(C)C(=O)CN2CCCCCC2)no1
Out: 5.33%
